Target under test: Voltage-dependent P/Q-type calcium channel subunit alpha-1A (Homo sapiens)
Sequence (O00555 whole entry): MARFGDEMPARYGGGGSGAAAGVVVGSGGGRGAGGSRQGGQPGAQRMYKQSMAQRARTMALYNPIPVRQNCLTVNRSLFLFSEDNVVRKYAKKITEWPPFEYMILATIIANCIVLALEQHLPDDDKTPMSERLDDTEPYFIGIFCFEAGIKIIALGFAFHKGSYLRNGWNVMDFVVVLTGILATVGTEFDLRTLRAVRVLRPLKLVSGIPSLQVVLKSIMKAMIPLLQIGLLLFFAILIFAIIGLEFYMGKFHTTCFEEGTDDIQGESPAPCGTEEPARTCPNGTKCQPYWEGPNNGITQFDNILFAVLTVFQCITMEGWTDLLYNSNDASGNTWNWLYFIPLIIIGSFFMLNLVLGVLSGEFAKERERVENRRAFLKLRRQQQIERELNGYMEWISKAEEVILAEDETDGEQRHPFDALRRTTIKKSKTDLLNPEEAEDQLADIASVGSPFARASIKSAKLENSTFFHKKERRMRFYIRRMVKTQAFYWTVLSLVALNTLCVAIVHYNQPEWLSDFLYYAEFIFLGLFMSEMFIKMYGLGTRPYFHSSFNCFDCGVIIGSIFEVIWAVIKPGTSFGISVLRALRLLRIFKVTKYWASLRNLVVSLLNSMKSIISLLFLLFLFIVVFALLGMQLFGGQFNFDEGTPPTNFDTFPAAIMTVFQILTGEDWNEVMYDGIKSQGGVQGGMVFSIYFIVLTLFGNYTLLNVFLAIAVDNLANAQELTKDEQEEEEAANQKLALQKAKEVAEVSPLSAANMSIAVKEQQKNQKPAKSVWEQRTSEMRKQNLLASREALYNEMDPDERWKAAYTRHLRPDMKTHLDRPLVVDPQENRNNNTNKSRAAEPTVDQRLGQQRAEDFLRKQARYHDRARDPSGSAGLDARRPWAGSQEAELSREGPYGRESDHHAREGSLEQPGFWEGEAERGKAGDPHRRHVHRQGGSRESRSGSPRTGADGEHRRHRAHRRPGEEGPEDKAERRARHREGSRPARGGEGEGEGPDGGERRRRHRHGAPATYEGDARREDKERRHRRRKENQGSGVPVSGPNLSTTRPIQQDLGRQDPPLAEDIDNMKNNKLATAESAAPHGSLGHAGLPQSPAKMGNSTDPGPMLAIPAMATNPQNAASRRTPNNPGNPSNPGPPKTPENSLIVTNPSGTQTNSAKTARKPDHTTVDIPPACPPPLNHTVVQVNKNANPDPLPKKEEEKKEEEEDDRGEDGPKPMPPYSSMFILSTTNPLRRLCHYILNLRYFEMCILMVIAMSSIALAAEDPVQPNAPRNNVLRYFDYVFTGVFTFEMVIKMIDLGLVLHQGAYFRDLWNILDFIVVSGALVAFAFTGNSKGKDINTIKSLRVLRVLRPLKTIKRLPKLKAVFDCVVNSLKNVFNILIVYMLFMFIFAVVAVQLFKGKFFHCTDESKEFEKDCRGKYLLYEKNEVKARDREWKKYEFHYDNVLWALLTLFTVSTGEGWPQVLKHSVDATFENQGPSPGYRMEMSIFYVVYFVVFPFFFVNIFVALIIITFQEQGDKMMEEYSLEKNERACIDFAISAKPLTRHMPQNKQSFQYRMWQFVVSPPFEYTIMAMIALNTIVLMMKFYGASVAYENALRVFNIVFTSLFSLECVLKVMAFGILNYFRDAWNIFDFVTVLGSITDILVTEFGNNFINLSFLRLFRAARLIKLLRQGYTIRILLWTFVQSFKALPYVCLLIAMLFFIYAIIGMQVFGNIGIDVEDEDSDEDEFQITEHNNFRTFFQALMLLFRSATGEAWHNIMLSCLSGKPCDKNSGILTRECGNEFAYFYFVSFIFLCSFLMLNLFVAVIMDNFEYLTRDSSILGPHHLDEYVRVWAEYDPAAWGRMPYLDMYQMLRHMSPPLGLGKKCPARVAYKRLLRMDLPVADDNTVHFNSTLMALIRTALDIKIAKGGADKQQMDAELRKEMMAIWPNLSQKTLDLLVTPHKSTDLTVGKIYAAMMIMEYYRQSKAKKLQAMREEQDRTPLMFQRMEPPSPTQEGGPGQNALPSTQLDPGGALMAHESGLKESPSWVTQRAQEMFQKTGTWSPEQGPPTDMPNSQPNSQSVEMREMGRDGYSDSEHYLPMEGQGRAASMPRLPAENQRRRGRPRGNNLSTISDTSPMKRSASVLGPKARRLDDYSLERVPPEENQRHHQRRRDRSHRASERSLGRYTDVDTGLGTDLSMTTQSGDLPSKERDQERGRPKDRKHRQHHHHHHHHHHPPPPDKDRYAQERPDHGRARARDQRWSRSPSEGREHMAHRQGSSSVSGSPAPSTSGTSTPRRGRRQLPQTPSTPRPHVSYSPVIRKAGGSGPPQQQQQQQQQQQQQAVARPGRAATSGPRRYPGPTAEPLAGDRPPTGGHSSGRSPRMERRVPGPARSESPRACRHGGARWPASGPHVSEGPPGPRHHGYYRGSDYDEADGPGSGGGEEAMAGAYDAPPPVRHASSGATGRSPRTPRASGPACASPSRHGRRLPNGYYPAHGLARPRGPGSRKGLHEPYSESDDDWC
Assay comment: Agonist activity at P/Q-type Cav2.1 expressed in tsA201 cell assessed as calcium current by whole-cell patch clamp method
Readout label: pEC50
One number for each entry, as −log10 of the molar value.

Requested read-out: pEC50. Entry: CCCn1cnc2c(NCc3ccc(C)s3)nc(N[C@H](CC)CO)nc21
5.06

###

Target under test: Voltage-dependent L-type calcium channel subunit alpha-1D (Homo sapiens)
Sequence (Q01668 whole entry): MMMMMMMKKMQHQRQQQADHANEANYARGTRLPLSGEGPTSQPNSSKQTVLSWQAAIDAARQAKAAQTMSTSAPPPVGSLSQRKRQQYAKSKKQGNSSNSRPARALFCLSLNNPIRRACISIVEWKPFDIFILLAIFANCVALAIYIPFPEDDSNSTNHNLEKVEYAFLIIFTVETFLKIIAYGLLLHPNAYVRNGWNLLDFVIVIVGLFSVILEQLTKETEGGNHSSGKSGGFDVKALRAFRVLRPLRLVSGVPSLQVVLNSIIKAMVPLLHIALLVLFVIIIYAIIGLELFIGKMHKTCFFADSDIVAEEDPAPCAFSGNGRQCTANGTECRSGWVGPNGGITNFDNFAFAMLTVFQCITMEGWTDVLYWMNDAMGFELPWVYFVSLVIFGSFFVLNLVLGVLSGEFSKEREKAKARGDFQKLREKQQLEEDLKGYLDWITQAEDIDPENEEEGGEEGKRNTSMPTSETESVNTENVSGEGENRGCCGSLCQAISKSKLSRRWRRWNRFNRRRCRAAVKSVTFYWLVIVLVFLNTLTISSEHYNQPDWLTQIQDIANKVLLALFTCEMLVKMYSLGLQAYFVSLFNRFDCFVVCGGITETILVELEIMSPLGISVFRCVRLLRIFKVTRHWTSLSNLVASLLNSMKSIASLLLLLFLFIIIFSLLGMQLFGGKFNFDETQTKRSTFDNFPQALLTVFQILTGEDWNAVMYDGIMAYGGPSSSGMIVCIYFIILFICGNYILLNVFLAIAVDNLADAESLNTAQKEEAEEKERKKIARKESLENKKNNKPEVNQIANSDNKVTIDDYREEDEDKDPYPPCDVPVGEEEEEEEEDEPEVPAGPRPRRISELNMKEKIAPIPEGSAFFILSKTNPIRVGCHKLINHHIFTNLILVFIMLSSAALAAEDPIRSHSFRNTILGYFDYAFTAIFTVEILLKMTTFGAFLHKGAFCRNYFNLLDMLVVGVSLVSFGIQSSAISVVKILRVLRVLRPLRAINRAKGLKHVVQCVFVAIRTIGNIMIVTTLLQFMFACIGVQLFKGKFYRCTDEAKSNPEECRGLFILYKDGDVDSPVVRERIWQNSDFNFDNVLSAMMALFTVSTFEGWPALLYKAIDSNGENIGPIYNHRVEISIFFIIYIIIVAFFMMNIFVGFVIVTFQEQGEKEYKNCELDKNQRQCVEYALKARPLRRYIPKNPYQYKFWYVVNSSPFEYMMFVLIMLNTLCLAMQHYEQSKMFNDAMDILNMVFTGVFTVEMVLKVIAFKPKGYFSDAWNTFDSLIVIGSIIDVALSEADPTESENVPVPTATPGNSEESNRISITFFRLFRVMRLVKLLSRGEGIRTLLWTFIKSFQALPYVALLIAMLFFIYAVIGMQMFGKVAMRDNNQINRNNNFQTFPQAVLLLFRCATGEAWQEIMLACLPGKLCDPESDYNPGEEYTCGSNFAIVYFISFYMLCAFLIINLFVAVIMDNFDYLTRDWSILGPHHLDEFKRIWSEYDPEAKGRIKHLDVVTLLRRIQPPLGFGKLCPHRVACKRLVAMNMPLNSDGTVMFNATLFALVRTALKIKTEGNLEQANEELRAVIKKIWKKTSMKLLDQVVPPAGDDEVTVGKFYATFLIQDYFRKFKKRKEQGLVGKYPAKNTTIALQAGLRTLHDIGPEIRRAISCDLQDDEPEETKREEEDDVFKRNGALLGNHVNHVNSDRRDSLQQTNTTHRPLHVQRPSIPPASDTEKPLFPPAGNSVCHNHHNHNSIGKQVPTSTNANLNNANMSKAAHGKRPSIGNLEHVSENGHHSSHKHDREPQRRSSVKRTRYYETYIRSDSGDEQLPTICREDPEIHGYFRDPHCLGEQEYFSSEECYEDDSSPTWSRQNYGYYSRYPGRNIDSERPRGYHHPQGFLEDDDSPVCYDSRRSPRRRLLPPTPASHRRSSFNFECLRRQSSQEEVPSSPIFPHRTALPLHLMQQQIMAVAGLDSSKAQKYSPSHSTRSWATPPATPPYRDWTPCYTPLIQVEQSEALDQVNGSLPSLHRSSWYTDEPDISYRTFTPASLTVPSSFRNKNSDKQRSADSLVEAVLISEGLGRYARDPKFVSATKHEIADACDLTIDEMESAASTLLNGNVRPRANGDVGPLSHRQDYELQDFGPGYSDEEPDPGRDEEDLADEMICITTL
Assay comment: Agonist activity at L-type Cav1.3 expressed in tsA201 cell assessed as calcium current by whole-cell patch clamp method
pEC50: −log10 of the molar value.
Readout label: pEC50

Requested read-out: pEC50. Entry: CCCn1cnc2c(NCc3ccc(C)s3)nc(N[C@H](CC)CO)nc21
< 4.00
